Where do the numbers come from? From patent US20140112930A1.

molecular target: T1, human bow-Ang-2 tetrameric construct (hBA2) (human); experiment: SPR, captured Ab
T1 construct: also called human BA2; hBA2-hIgG1
T1 sequence (chain, as listed by the source limits assumed): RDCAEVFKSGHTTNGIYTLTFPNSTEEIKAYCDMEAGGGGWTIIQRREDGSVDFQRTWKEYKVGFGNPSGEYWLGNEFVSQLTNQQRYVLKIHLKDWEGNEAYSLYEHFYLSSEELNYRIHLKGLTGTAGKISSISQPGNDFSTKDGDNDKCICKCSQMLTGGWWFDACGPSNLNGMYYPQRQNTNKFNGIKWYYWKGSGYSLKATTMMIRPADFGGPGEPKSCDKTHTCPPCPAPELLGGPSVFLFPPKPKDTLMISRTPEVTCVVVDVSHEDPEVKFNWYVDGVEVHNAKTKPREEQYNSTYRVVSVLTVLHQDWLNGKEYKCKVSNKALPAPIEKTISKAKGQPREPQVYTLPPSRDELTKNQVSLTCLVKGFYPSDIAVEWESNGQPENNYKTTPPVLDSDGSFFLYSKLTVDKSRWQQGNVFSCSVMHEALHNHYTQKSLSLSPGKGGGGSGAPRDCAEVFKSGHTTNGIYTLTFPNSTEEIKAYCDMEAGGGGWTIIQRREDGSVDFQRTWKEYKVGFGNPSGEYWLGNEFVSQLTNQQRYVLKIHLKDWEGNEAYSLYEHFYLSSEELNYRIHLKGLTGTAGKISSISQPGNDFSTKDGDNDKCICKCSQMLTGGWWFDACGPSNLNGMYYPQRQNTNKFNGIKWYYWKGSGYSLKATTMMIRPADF
Items are presented alongside their recorded Kd.
# output: bare number, implied unit nM

Binder	Kd [nM]
H1H744N (antibody, V domains shown) VH: QVQLVQSGVEVKKPGASVKVSCKTSGYTFSNNGFSWVRQAPGQGLEWLGWISGYNGNTNYAQKFQGRVTMTTDTSTSTAYMELRTLRSDDTAVYYCARDQDYSNFHWLDPWGQGTLVTVAS VL: DIQMTQSPSSVSASVGDRVIITCRASQGLSSWLAWYQQKPGTAPKLLIHSASSLQTGVPSRFSGSGSGTEFALTINSLQPEDFGTYYCQQANSFPLTFGGGTRVEIK	0.0172
H1H732N (antibody, V domains shown) VH: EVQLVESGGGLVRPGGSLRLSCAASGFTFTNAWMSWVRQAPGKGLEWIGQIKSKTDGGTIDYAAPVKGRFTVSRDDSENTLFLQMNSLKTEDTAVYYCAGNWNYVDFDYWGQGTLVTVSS VL: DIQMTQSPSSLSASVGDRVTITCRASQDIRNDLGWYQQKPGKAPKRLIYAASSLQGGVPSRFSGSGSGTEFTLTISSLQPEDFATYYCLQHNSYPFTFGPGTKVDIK	0.132

Q: Quick one: Kd for H1H724N (antibody, V domains shown) VH: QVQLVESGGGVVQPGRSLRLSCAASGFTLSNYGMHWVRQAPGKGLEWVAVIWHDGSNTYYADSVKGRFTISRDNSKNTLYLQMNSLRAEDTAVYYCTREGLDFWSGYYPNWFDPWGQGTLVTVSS VL: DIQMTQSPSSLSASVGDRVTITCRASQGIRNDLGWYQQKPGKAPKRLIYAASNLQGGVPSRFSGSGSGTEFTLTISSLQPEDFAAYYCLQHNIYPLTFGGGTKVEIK ?
Ans: 0.0233
